assay: Unidirectional (A→B) permeability across Caco-2 cell monolayers in presence and absence of excipients; settings: human, Caco-2, Apparent permeability coefficient (Papp), PEG 400 […] (control set a), mean ± SEM, n = 4
Readout label: Papp A→B (×10⁻⁶ cm/s)

{"columns": ["Compound", "Readout label", "Units text", "Val"],
 "data": [
  ["CC(C)(C)NCC(O)COc1cccc2c1CC(O)C(O)C2 (stereo not shown) [Nadolol, nadolol]", "Papp A→B", "×10⁻⁶ cm/s", 0.14]
]}

* * *

assay: Bidirectional permeability across Caco-2 cell monolayers (no excipients); conditions: human, Caco-2, B→A Recovery, Caco-2, no excipients, cassette; mean ± SD, n = 3

{"columns": ["Compound", "Units text", "recovery"],
 "data": [
  ["CC(C)(C)NCC(O)COc1cccc2c1CC(O)C(O)C2 (centres unmarked)", "%", 90.7],
  ["Nc1nc2c(ncn2COCCO)c(=O)[nH]1", "%", 94.9]
]}
